# Target system: T1, Cynomolgus monkey Serum Albumin (Cynomolgus monkey, UniProt A2V9Z4 25-608)
# T1 construct: mature; Purified in house; also called CSA; cyno serum albumin
# T1 sequence (A2V9Z4 25-608): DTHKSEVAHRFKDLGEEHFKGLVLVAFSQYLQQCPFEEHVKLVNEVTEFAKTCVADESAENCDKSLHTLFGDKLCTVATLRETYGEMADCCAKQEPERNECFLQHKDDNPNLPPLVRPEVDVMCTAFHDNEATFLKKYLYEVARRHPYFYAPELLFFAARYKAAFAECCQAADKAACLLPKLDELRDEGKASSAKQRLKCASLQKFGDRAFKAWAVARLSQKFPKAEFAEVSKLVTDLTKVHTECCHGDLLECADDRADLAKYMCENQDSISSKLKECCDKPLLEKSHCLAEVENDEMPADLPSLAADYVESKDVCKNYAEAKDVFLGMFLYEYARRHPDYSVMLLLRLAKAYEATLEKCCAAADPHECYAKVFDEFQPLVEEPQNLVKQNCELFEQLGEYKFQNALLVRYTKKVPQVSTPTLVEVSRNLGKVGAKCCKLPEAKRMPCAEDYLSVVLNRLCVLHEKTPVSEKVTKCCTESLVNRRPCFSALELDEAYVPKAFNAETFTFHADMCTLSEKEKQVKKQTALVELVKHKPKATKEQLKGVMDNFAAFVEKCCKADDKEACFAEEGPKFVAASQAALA
# Procedure summary: SPR (BIAcore), purified dAb
Measurement name: Kd (nM)

A = DOM7h-14-82 (other, pDOM5 myc tag not included) VL: DIQMTQSPSSLSASVGDRVTITCRASQWIGSQLSWYQQKPGKAPKLLIMWRSSLQSGVPSRFSGSGSGTDFTLTISSLQPEDFATYYCAQGMRHPKTFGQGTKVEIKW
B = DOM7h-14-120 (other) VL: DIQMTQSPSSLSASVGDRVTITCRASQWIGSQLSWYQQKPGKAPKLLIMWRSSLQSGVPSRFSGSGSGTDFTLTISSLQPEDFATYYCAQGLRHPKTYGQGTKVENKR
Among A and B , which shows a numerically higher Kd result? Write the label of whichever entry you select.
A
(A: 170 nM, B: 3.7 nM)
